# EXPERIMENTAL_TARGET: Tyrosine-protein kinase SYK (Homo sapiens)
# RECORDED_CONDITIONS: at 10 µM
Entries and their residual activity

{"ITEM_SMILES": "CCCCc1c(-c2ccc(O)cc2)[nH]c2nccnc12", "VALUE_UNIT": "%", "residual activity": 66}
{"ITEM_SMILES": "O=c1cc(N2CCNCC2)oc2c(-c3ccccc3)cccc12", "VALUE_UNIT": "%", "residual activity": 92}
{"ITEM_SMILES": "Nc1ncnc2[nH]nc(Nc3ccc(F)cc3)c12", "VALUE_UNIT": "%", "residual activity": 97}

* * *

# EXPERIMENTAL_TARGET: Cyclin-dependent kinase 2/cyclin E (Homo sapiens) (UniProt P24864+P24941+O96020)
# RECORDED_CONDITIONS: at 1 µM
residual activity under 80% gets Condition met, anything at or over 80% gets Condition not met.

{"ITEM_SMILES": "CCCCc1c(-c2ccc(OC)cc2)[nH]c2nccnc12", "LABEL_CLASS": "Condition met"}
{"ITEM_SMILES": "O=C1Cc2c([nH]c3ccc(Br)cc23)-c2ccccc2N1", "LABEL_CLASS": "Condition met"}
{"ITEM_SMILES": "Cn1c2ccccc2c2c3c(c4c5ccccc5n(CCC#N)c4c21)CNC3=O", "LABEL_CLASS": "Condition met"}
{"ITEM_SMILES": "O=c1cc(N2CCOCC2)oc2c1ccc1ccccc12", "LABEL_CLASS": "Condition not met"}
{"ITEM_SMILES": "NC(=O)c1ccc(-c2nc(-c3ccc4c(c3)OCCO4)c(-c3ccccn3)[nH]2)cc1", "LABEL_CLASS": "Condition not met"}

* * *

# EXPERIMENTAL_TARGET: Tyrosine-protein kinase ITK/TSK (Homo sapiens)
# RECORDED_CONDITIONS: at 1 µM
PROPERTY_NAME: residual activity

{"ITEM_SMILES": "Nc1ncnc2c1c(-c1ccc(Oc3ccccc3)cc1)cn2C1CCCC1", "PROPERTY_NAME": "residual activity", "REPORTED_MEASUREMENT": "58%"}
{"ITEM_SMILES": "COc1ccc(COc2ccc(Cc3cnc(N)nc3N)cc2OC)cc1", "PROPERTY_NAME": "residual activity", "REPORTED_MEASUREMENT": "100%"}
{"ITEM_SMILES": "O=c1cc(N2CCNCC2)oc2c(-c3ccccc3)cccc12", "PROPERTY_NAME": "residual activity", "REPORTED_MEASUREMENT": "83%"}
{"ITEM_SMILES": "O=C1Cc2c([nH]c3ccc(Br)cc23)-c2ccccc2N1", "PROPERTY_NAME": "residual activity", "REPORTED_MEASUREMENT": "83%"}
{"ITEM_SMILES": "COc1cc2nccc(Oc3ccc(NC(=S)NC(=O)c4ccccc4C)cc3)c2cc1OC", "PROPERTY_NAME": "residual activity", "REPORTED_MEASUREMENT": "79%"}
{"ITEM_SMILES": "Cn1c2ccccc2c2c3c(c4c5ccccc5n(CCC#N)c4c21)CNC3=O", "PROPERTY_NAME": "residual activity", "REPORTED_MEASUREMENT": "4%"}
{"ITEM_SMILES": "CCN(CC)CCNC(=O)c1c(C)[nH]c(/C=C2\\C(=O)Nc3ccc(Cl)cc32)c1C", "PROPERTY_NAME": "residual activity", "REPORTED_MEASUREMENT": "21%"}
{"ITEM_SMILES": "CCOC(=O)c1c(C)[nH]c(/C=C2\\C(=O)Nc3ccccc32)c1C", "PROPERTY_NAME": "residual activity", "REPORTED_MEASUREMENT": "79%"}
{"ITEM_SMILES": "O=c1cc(N2CCOCC2)oc2c1ccc1ccccc12", "PROPERTY_NAME": "residual activity", "REPORTED_MEASUREMENT": "96%"}
{"ITEM_SMILES": "CC(C)(C)n1nc(Cc2cccc3ccccc23)c2c(N)ncnc21", "PROPERTY_NAME": "residual activity", "REPORTED_MEASUREMENT": "107%"}
{"ITEM_SMILES": "NC(=O)Nc1sc(-c2ccc(F)cc2)cc1C(N)=O", "PROPERTY_NAME": "residual activity", "REPORTED_MEASUREMENT": "22%"}

* * *

# EXPERIMENTAL_TARGET: Serine/threonine-protein kinase pim-3 (Homo sapiens)
# RECORDED_CONDITIONS: at 1 µM
residual activity under 80% gets satisfied, anything at or over 80% gets not satisfied.

{"ITEM_SMILES": "CCCC(=O)Oc1ccc2[nH]c(C(=O)c3cc4ccccc4[nH]3)cc2c1", "LABEL_CLASS": "not satisfied"}
{"ITEM_SMILES": "Oc1cccc(-c2nc(N3CCOCC3)c3oc4ncccc4c3n2)c1", "LABEL_CLASS": "not satisfied"}
{"ITEM_SMILES": "Nc1ncnc2c1cnn2-c1ccccc1", "LABEL_CLASS": "not satisfied"}
{"ITEM_SMILES": "NC(=O)c1ccc(-c2nc(-c3ccc4c(c3)OCCO4)c(-c3ccccn3)[nH]2)cc1", "LABEL_CLASS": "not satisfied"}
{"ITEM_SMILES": "O=c1cc(N2CCNCC2)oc2c(-c3ccccc3)cccc12", "LABEL_CLASS": "not satisfied"}
{"ITEM_SMILES": "O=C(CCCc1ccc(-c2ccccc2F)cc1)Nc1ccc(O)cc1", "LABEL_CLASS": "not satisfied"}
{"ITEM_SMILES": "COc1ccc2c(c1)c(C1=C(c3c[nH]c4ccccc34)C(=O)NC1=O)cn2CCCN(C)C", "LABEL_CLASS": "satisfied"}
{"ITEM_SMILES": "O=C1Nc2ccc(Cl)cc2/C1=C/c1cc(Cl)c(O)c(Cl)c1", "LABEL_CLASS": "satisfied"}
{"ITEM_SMILES": "CC(C)(C)n1nc(Cc2cccc3ccccc23)c2c(N)ncnc21", "LABEL_CLASS": "not satisfied"}
{"ITEM_SMILES": "O=C1Cc2c([nH]c3ccc(Br)cc23)-c2ccccc2N1", "LABEL_CLASS": "not satisfied"}
{"ITEM_SMILES": "Fc1ccc(-c2nc3n(c2-c2ccncc2)CCS3)cc1", "LABEL_CLASS": "not satisfied"}
{"ITEM_SMILES": "N#C/C(=C1/Nc2ccccc2S1)c1ccnc(NCCc2cccnc2)n1", "LABEL_CLASS": "satisfied"}
{"ITEM_SMILES": "CN(C)S(=O)(=O)c1ccc2c(c1)/C(=C/c1cc3c([nH]1)CCCC3)C(=O)N2", "LABEL_CLASS": "not satisfied"}
{"ITEM_SMILES": "O=C1NC(=O)C(c2cn(CCCO)c3ncccc23)=C1c1cnccn1", "LABEL_CLASS": "satisfied"}
{"ITEM_SMILES": "Nc1nc(Nc2ccc(S(N)(=O)=O)cc2)nn1C(=O)c1c(F)cccc1F", "LABEL_CLASS": "not satisfied"}
{"ITEM_SMILES": "N#Cc1c(NC(=O)c2cccc3ccccc23)sc2c1CCCC2", "LABEL_CLASS": "not satisfied"}
{"ITEM_SMILES": "O=C1NC(=O)c2c1c1c3ccccc3[nH]c1n1cncc21", "LABEL_CLASS": "satisfied"}
{"ITEM_SMILES": "Cc1cc(C)c(/C=C2\\C(=O)Nc3ccccc32)[nH]1", "LABEL_CLASS": "not satisfied"}
{"ITEM_SMILES": "COc1cc2nccc(Oc3ccc(NC(=S)NC(=O)c4ccccc4C)cc3)c2cc1OC", "LABEL_CLASS": "not satisfied"}
{"ITEM_SMILES": "O=C1C(Cl)=C(N2C(=O)CCC2=O)C(=O)c2ccccc21", "LABEL_CLASS": "not satisfied"}
{"ITEM_SMILES": "CCCCc1c(-c2ccc(OC)cc2)[nH]c2nccnc12", "LABEL_CLASS": "not satisfied"}
{"ITEM_SMILES": "CC(C)c1nn(-c2c(Cl)cccc2Cl)c2nc(Cc3ccc(OCCO)cc3)[nH]c(=O)c12", "LABEL_CLASS": "not satisfied"}
{"ITEM_SMILES": "COc1cc2ncnc(Nc3cccc(Cl)c3)c2cc1OC", "LABEL_CLASS": "not satisfied"}

* * *

Entries and their residual activity
# EXPERIMENTAL_TARGET: Serine/threonine-protein kinase Sgk2 (Homo sapiens)
# RECORDED_CONDITIONS: at 1 µM

{"ITEM_SMILES": "O=C1NC(=O)C(c2c[nH]c3ccccc23)=C1c1c[nH]c2ccccc12", "residual activity (%)": 78}
{"ITEM_SMILES": "O=C(CCCc1ccc(-c2ccccc2F)cc1)Nc1ccc(O)cc1", "residual activity (%)": 131}
{"ITEM_SMILES": "Cn1c2ccccc2c2c3c(c4c5ccccc5n(CCC#N)c4c21)CNC3=O", "residual activity (%)": 76}
{"ITEM_SMILES": "O=C1Cc2c([nH]c3ccc([N+](=O)[O-])cc23)-c2ccccc2N1", "residual activity (%)": 65}
{"ITEM_SMILES": "O=c1cc(N2CCOCC2)oc2c1ccc1ccccc12", "residual activity (%)": 92}
{"ITEM_SMILES": "CN(C)S(=O)(=O)c1ccc2c(c1)/C(=C/c1cc3c([nH]1)CCCC3)C(=O)N2", "residual activity (%)": 115}
{"ITEM_SMILES": "O=C(O)/C=C/c1cc(Br)c(Br)c(Br)c1Br", "residual activity (%)": 83}
{"ITEM_SMILES": "CC(C)c1nn(-c2c(Cl)cccc2Cl)c2nc(Cc3ccc(OCCO)cc3)[nH]c(=O)c12", "residual activity (%)": 97}
{"ITEM_SMILES": "Cc1cc(C)c(/C=C2\\C(=O)Nc3ccccc32)[nH]1", "residual activity (%)": 80}
{"ITEM_SMILES": "Nc1n[nH]c2nc3ccccc3nc12", "residual activity (%)": 92}
{"ITEM_SMILES": "COc1cc2ncnc(Nc3cccc(Cl)c3)c2cc1OC", "residual activity (%)": 77}
{"ITEM_SMILES": "COc1cc2nccc(Oc3ccc(NC(=O)Nc4cc(C)on4)c(Cl)c3)c2cc1OC", "residual activity (%)": 103}
{"ITEM_SMILES": "O=C1NC(=O)c2c1c1c3ccccc3[nH]c1n1cncc21", "residual activity (%)": 52}
{"ITEM_SMILES": "CC(C)(C)n1nc(Cc2cccc3ccccc23)c2c(N)ncnc21", "residual activity (%)": 101}
{"ITEM_SMILES": "COc1ccc2c(c1)c(C1=C(c3c[nH]c4ccccc34)C(=O)NC1=O)cn2CCCN(C)C", "residual activity (%)": 80}
{"ITEM_SMILES": "NCCNc1ncc(C(N)=O)c(Nc2cccc(C(F)(F)F)c2)n1", "residual activity (%)": 82}
{"ITEM_SMILES": "COc1ccc(COc2ccc(Cc3cnc(N)nc3N)cc2OC)cc1", "residual activity (%)": 108}
{"ITEM_SMILES": "O=C1Nc2ccc(Cl)cc2/C1=C/c1cc(Cl)c(O)c(Cl)c1", "residual activity (%)": 84}
{"ITEM_SMILES": "O=C(Nc1nc2ccccc2n1CCN1CCOCC1)c1cccc([N+](=O)[O-])c1", "residual activity (%)": 108}
{"ITEM_SMILES": "CC(C)[C@H](CO)Nc1nc(Nc2cc(N)cc(Cl)c2)c2ncn(C(C)C)c2n1", "residual activity (%)": 95}
{"ITEM_SMILES": "COc1ccc(-c2cnc3c(-c4ccsc4)cnn3c2)cc1", "residual activity (%)": 97}
{"ITEM_SMILES": "O=C(c1ccccc1)c1ccc(N2CCOCC2)cc1O", "residual activity (%)": 134}
{"ITEM_SMILES": "O=C1Cc2c([nH]c3ccc(Br)cc23)-c2ccccc2N1", "residual activity (%)": 99}
{"ITEM_SMILES": "CCCCc1c(-c2ccc(O)cc2)[nH]c2nccnc12", "residual activity (%)": 92}
{"ITEM_SMILES": "CC(C)(C)c1nc2c3ccc(F)cc3c3c(=O)[nH]ccc3c2[nH]1", "residual activity (%)": 63}
